Tested on: U2OS
protocol: Multiplex assay against U2OS
Type: toxicity, cell-based
reported_conditions: human, 48 h, 10 µM, compound concentration 10 uM, replicate 1
property: Population Mitotic Cells (%)
Answers are plain numbers, in %.

[
  {
    "compound": "OC1(c2ccc(Cl)cc2)CCN(Cc2c[nH]c3ccccc23)CC1",
    "test_system": "U2OS",
    "unit_symbol": "%",
    "Population Mitotic Cells (%)": 20
  }
]

Hi, could you look up Population Mitotic Cells (%) for each item in my list?
1. CN(C)C(=O)N[C@H]1CC[C@H](CCN2CCN(c3cccc(Cl)c3Cl)CC2)CC1.Cl [CARIPRAZINE HYDROCHLORIDE]
2. Cc1nc(-c2ccc(-c3ccc(C(=O)N4CCc5cc6c(cc54)C4(CCN(C)CC4)CO6)cc3)c(C)c2)no1 [SB-224289]
3. C[C@@H](NCCCc1cccc(C(F)(F)F)c1)c1cccc2ccccc12.Cl [CINACALCET HYDROCHLORIDE]
4. CC(C)NCC(O)COc1ccc(CCOCC2CC2)cc1.Cl (stereo not given) [BETAXOLOL HYDROCHLORIDE]

20
18
29
47

###

Tested on: HEK-293T
protocol: Multiplex assay against HEK293T
Assay type: toxicity, cell-based
reported_conditions: human, 12 h, 1 µM, compound concentration 1 uM, replicate 1
So I've got a bunch of molecules here, and I need their Population Hoechst High Intensity Objects (%) values.
Give bare numbers, in %.

Record excerpt, results attached:
[
  {
    "molecule": "CCN(CC)CCCCNc1ncc2cc(-c3cc(OC)cc(OC)c3)c(NC(=O)NC(C)(C)C)nc2n1",
    "obs_value": 69
  },
  {
    "molecule": "CN(C)C(=O)N[C@H]1CC[C@H](CCN2CCN(c3cccc(Cl)c3Cl)CC2)CC1.Cl [CARIPRAZINE HYDROCHLORIDE]",
    "obs_value": 13
  },
  {
    "molecule": "Cc1nc(Nc2n[nH]c3c2CN(C(=O)N[C@H](CN(C)C)c2ccccc2)C3(C)C)c2sccc2n1",
    "obs_value": 12
  }
]

Lab note: next molecule to report on.
Need Population Hoechst High Intensity Objects (%) of CC(C)(O)CNc1ncc(-c2ccnc(Nc3ccnc(Cl)c3)n2)c(CC2CC2)n1 , thanks.
16

###

System: HEK-293T
protocol: Multiplex assay against HEK293T
Assay type: toxicity, cell-based
reported_conditions: human, 24 h, 10 µM, compound concentration 10 uM, replicate 2
So I've got a bunch of compounds here, and I need their Total Cell Count values.

Record excerpt, results attached:
[
  {
    "compound": "COc1ncc(-c2ccc3nccc(-c4ccnnc4)c3c2)cc1NS(=O)(=O)c1ccc(F)cc1F [OMIPALISIB]",
    "test_system": "HEK-293T",
    "Total Cell Count": 150
  },
  {
    "compound": "Cc1c(-c2ccc(O)cc2)n(Cc2ccc(OCCN3CCCCCC3)cc2)c2ccc(O)cc12 [BAZEDOXIFENE]",
    "test_system": "HEK-293T",
    "Total Cell Count": 168
  },
  {
    "compound": "CN1CCCC(n2nc(Cc3ccc(Cl)cc3)c3ccccc3c2=O)CC1.Cl (stereo not given) [AZELASTINE HYDROCHLORIDE]",
    "test_system": "HEK-293T",
    "Total Cell Count": 230
  }
]

Hi, could you look up Total Cell Count for each item in my list?
1. CCN(CC)CCCCNc1ncc2cc(-c3cc(OC)cc(OC)c3)c(NC(=O)NC(C)(C)C)nc2n1 [PD-173074]
2. CN1CCN(c2ccc(OC(F)(F)F)c(Nc3ncc4c(n3)-c3c(c(C(N)=O)nn3CCO)CC4)c2)CC1 [ONVANSERTIB]
3. CN(C)C(=O)N[C@H]1CC[C@H](CCN2CCN(c3cccc(Cl)c3Cl)CC2)CC1.Cl [CARIPRAZINE HYDROCHLORIDE]
4. c1cn2cc(-c3ccc4cn[nH]c4c3)nc(Nc3ccc(N4CCOCC4)cc3)c2n1 [ENTOSPLETINIB]

1: 1994; 2: 256; 3: 241; 4: 430

Hi, could you look up Total Cell Count for each item in my list?
1. C=CC(=O)Nc1cc2c(Nc3ccc(F)c(Cl)c3)ncnc2cc1OCCCN1CCOCC1.Cl.Cl [CANERTINIB DIHYDROCHLORIDE]
2. C=CC(=O)Nc1cccc(C(=O)Nc2ccc(Nc3cc(-c4[nH]c(SC)nc4C)ccn3)cc2)c1
3. Cl.N#Cc1ccc2[nH]cc(CCCCN3CCN(c4ccc5oc(C(N)=O)cc5c4)CC3)c2c1 [VILAZODONE HYDROCHLORIDE]
4. CN1CCC[C@@H]1CCO[C@](C)(c1ccccc1)c1ccc(Cl)cc1.O=C(O)/C=C/C(=O)O [CLEMASTINE FUMARATE]
5. C=CC(=O)Nc1ccc2ncnc(Nc3ccc(OCc4cccc(F)c4)c(Cl)c3)c2c1.Cc1ccc(S(=O)(=O)O)cc1
6. Cc1cc(C)cc(-c2cnc3cc(Cl)c(-c4cccc(O)c4)cc3c2OCCCN)c1
7. Cc1csc2c(N[C@@H](C)CN3CCN(S(=O)(=O)c4ccc(Cl)c(Cl)c4)CC3)ncnc12
8. O=C1NCN(c2ccccc2)C12CCN(CCCOc1ccc(F)cc1)CC2 [SPIRAMIDE]

[2738, 284, 186, 159, 161, 183, 200, 256]
